Tested on: leukotriene E4 bronchoconstriction
Assay: Guinea Pig Bronchoconstriction, In Vivo (Aerosol), leukotriene E4 challenge
Design: species or system guinea pig (Hartley strain)
Settings: five minute exposure, drug concentration of aerosol solution (w/v), leukotriene E4 i.v.
readout: Guinea Pig Bronchoconstriction In vivo aerosol - IC50 (%)

- compound: "CCCc1c(OCCCOc2ccc3c(c2)CCC(CC(=O)O)O3)ccc(C(C)=O)c1O (racemic)"
  unit-text: "%"
  recorded-result: 1.0
- compound: "CCCc1c(OCCCCCCCOc2cc3c(cc2C(C)=O)CCC(C(=O)O)O3)ccc(C(C)=O)c1O (racemic)"
  unit-text: "%"
  recorded-result: 1.0

[1] CCCc1c(OCCCOc2c(C)c(C)c3c(c2C)CCC(C)(CC(=O)O)O3)ccc(C(C)=O)c1O (racemic)
[2] CCCc1c(OCCCOc2ccc3c(c2)OC(CC(=O)O)CC3)ccc(C(C)=O)c1O (racemic)
[3] CCCc1c(OCCCCCOc2cc3c(cc2C(C)=O)CCC(C(=O)O)O3)ccc(C(C)=O)c1O (racemic)
[4] CCCc1c(OCCCOc2cc3c(cc2C(C)=O)OC(C(=O)O)CC3)ccc(C(C)=O)c1O (racemic)
[5] CCCc1c(OCCCOc2cc3c(cc2C(C)=O)CCC(C(=O)O)O3)ccc(C(C)=O)c1O (racemic)
Prompt: Hey, quick one: sort these by Guinea Pig Bronchoconstriction In vivo aerosol - IC50, low to high? Give me the labels in the order the question wants.
Response: 3, 5, 4, 2, 1
(3: 0.052%, 5: 0.20%, 4: 0.34%, 2: 0.67%, 1: 1.0%)

----------
Test system: SRS-A-induced constriction of the guinea pig ileum
Assay: Guinea Pig Ileum, In Vitro (SRS-A antagonism)
Assay type: cell-based
Settings: Cavia porcellus; SRS-A-induced constriction, 37° C., SRS-A at its EC50; read-out: In vitro Guinea Pig ileum IC50
readout: IC50 (nM)

The examples below pair each entry with its known result.
- molecule: "CCCc1c(OCCCCCOc2c(C)c(C)c3c(c2C)CCC(C)(C(=O)O)O3)ccc(C(C)=O)c1O (racemic)"
  readout: "IC50"
  recorded-result: 100
- molecule: "CCCc1c(OCCCOc2ccc3c(c2)CCC(C)(C(=O)O)O3)ccc(C(C)=O)c1O (racemic)"
  readout: "IC50"
  recorded-result: 100

[A] CCCc1c(OCCCOc2c(C(C)=O)cc3c(c2CCC)OC(C(=O)O)CC3)ccc(C(C)=O)c1O (racemic)
[B] CCCc1c(OCCCCCOc2cc3c(cc2C(C)=O)CCC(C(=O)O)O3)ccc(C(C)=O)c1O (racemic)
[C] CCCc1c(OCCCCCOc2c(C)c(C)c3c(c2C)CC[C@@](C)(C(=O)O)O3)ccc(C(C)=O)c1O
Prompt: Falling order of IC50, please. Response field: labels, in requested order.
Response: C, A, B
